experiment: AUC(0 to infinity) in mouse at 10 mg/kg, po measured upto 24 hrs by LC-MS/MS analysis; type: ADME, organism-based; set-up: dose 10 mg/kg, time < 24 hrs, route po; settings: in vivo
measured.parameter: AUC(0-inf) (ng·h/mL)
Numbers only; they are read as ng·h/mL.

Request: Quick check: AUC(0-inf) of "O=C(O)CNC(=O)c1ncc(C2CCN(C(=O)CNc3ccc(Cl)cc3)CC2)cc1O" ?
Result: 4490

====

assay: Half life in mouse at 1 mg/kg, iv measured upto 24 hrs by LC-MS/MS analysis; type: ADME, organism-based; details: in vivo
measured.parameter: half-life (min)
Give just the number in min; leave the unit off.

Request: Given "O=C(O)CNC(=O)c1ncc(C2CCN(C(=O)CNc3ccc(Cl)cc3)CC2)cc1O" , state its recorded half-life.
Result: 19.8

The measurements presented in this section are drawn from ChEMBL document CHEMBL5331121.
